Data provenance is IntAct's records for PubMed 29039417.

B1: Protein PTHB1 (Homo sapiens), Q3SYG4 (parent)
chain: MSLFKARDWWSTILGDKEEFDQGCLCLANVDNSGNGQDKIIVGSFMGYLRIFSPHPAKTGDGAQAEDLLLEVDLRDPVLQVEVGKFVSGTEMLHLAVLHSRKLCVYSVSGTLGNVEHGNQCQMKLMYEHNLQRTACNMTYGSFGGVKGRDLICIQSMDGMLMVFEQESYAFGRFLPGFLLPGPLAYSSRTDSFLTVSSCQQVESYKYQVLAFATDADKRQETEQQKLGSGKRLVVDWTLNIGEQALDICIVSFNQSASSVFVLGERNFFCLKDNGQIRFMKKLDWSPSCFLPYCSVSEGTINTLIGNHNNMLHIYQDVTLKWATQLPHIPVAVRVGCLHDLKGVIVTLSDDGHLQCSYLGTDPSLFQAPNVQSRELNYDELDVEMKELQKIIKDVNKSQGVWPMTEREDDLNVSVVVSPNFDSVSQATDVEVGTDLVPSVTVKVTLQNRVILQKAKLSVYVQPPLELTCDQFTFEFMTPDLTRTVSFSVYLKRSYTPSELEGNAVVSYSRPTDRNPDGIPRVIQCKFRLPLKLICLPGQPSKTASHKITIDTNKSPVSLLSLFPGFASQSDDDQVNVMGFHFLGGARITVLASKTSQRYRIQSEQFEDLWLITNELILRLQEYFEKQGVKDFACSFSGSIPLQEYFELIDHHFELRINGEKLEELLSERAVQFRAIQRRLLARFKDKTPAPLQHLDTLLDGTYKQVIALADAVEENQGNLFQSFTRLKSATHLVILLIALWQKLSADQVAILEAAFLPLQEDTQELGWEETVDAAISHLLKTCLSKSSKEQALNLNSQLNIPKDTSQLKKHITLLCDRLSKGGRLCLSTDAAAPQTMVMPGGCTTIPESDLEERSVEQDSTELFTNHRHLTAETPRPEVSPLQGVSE
partner: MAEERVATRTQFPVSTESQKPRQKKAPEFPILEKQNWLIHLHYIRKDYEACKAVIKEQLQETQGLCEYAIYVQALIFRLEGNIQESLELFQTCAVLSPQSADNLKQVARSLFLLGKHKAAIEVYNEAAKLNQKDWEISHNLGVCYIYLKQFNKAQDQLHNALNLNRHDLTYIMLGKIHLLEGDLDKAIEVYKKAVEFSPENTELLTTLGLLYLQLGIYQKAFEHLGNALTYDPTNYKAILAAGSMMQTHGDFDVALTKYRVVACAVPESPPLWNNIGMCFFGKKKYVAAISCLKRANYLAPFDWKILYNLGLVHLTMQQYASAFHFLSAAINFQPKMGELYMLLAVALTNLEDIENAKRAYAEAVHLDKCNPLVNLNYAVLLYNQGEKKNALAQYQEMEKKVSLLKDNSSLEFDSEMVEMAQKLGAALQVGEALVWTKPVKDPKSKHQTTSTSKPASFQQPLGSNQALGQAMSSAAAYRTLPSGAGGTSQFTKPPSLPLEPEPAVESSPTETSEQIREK

variants of: B1; conditions: with bbs4_human BBS4, Q96RK4
assayEndpoint: effect of a mutation on the interaction

Worked set:
Query: Returns the measured effect of a mutation on the interaction for the input variant. Input: T482E
Reply: with no effect

Query: Check L827K too.
Reply: with no effect

Query: Check P689A too.
Reply: with no effect

Query: Check K781E too.
Reply: with no effect

Query: Check D631A too.
Reply: with no effect

Parameter requested: effect of a mutation on the interaction. Apply to each item below.
1. D762K
2. S787K
3. E604A
4. V772A

Reply:
with no effect
with no effect
with no effect
with no effect
